Data credit: ChEMBL document CHEMBL3414506

Biological target: Steroid 17-alpha-hydroxylase/17,20 lyase (Homo sapiens, UniProt P05093)
Sequence (P05093 whole entry): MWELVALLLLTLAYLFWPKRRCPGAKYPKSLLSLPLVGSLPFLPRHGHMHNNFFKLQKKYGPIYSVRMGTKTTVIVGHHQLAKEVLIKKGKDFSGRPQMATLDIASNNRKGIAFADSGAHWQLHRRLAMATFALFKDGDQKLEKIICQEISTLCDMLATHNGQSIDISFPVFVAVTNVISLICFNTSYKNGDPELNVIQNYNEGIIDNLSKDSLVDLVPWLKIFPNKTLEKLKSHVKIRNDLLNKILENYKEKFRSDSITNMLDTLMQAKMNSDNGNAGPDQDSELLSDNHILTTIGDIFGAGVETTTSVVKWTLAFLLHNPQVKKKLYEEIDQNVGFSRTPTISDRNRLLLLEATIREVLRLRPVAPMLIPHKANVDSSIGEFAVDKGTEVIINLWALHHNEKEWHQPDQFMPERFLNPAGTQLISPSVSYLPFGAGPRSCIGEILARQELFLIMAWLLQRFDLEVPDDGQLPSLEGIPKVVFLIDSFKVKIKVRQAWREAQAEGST
Experiment: Inhibition of human CYP17 using 17alpha-hydroxypregnenolone substrate
experimental readout: pIC50
// field semantics: pIC50 = negative decimal log of concentration (mol/L)

Checklist item: pIC50 tested on Steroid 17-alpha-hydroxylase/17,20 lyase (Homo sapiens, UniProt P05093), entry C[C@]12CCC(=O)C=C1CC[C@@H]1[C@@H]2CC[C@]2(C)C(n3cncn3)=CC[C@@H]12 , value? 7.26

###

Test: AUC in SCID mouse at 50 mg/kg, sc
Format: ADME, organism-based
Set-up: dose 50 mg/kg, route subcutaneous
Conditions: plasma
experimental readout: AUC (ng·h/mL)
// return numeric value only (unit: ng·h/mL, not printed)

Requested field: AUC. Item: C[C@]12CC[C@H](O)CC1=CC[C@@H]1[C@@H]2CC[C@]2(C)C(n3cnc4ccccc43)=CC[C@@H]12 [GALETERONE] 24000

###

Assay: Mean residence time in SCID mouse at 100 mg/kg, sc
Assay type: ADME, organism-based
Parameters: dose 100 mg/kg, route subcutaneous
Conditions: in vivo
experimental readout: MRT (h)
// return numeric value only (unit: h, not printed)

Requested field: MRT. Item: C[C@]12CC[C@H](O)CC1=CC[C@@H]1[C@@H]2CC[C@]2(C)C(n3cnc4ccccc43)=CC[C@@H]12 1.01

###

Biological target: Steroid 17-alpha-hydroxylase/17,20 lyase (Homo sapiens, UniProt P05093)
experimental readout: Ki

Requested field: Ki. Item: C[C@]12CCC(=O)C=C1CC[C@@H]1[C@@H]2CC[C@]2(C)C(n3cncn3)=CC[C@@H]12 41 nM

###

Experiment: Mean residence time in SCID mouse at 50 mg/kg, sc
Assay type: ADME, organism-based
Parameters: dose 50 mg/kg, route subcutaneous
Conditions: in vivo
experimental readout: MRT

Requested field: MRT. Item: C[C@]12CC[C@H](O)CC1=CC[C@@H]1[C@@H]2CC[C@]2(C)C(n3cnc4ccccc43)=CC[C@@H]12 1.09 h

###

Assay: AUC in SCID mouse at 100 mg/kg, sc
Assay type: ADME, organism-based
Set-up: dose 100 mg/kg, route subcutaneous
Conditions: plasma
experimental readout: AUC (ng·h/mL)
// return numeric value only (unit: ng·h/mL, not printed)

Requested field: AUC. Item: C[C@]12CC[C@H](O)CC1=CC[C@@H]1[C@@H]2CC[C@]2(C)C(n3cnc4ccccc43)=CC[C@@H]12 30200

###

Assay: Cmax in SCID mouse at 50 mg/kg, sc
Type: ADME, organism-based
Parameters: dose 50 mg/kg, route subcutaneous
Conditions: in vivo
experimental readout: Cmax (ng/mL)
// return numeric value only (unit: ng/mL, not printed)

Requested field: Cmax. Item: C[C@]12CC[C@H](O)CC1=CC[C@@H]1[C@@H]2CC[C@]2(C)C(n3cnc4ccccc43)=CC[C@@H]12 [GALETERONE] 16800

###

Test: Clearance in SCID mouse at 50 mg/kg, sc
Type: ADME, organism-based
Parameters: dose 50 mg/kg, route subcutaneous
Conditions: in vivo
experimental readout: CL/F

Requested field: CL/F. Item: C[C@]12CC[C@H](O)CC1=CC[C@@H]1[C@@H]2CC[C@]2(C)C(n3cnc4ccccc43)=CC[C@@H]12 33.1 mL/min/kg
